Measured values drawn from paper PMC9482650 for this set.

- Target entity: T1, ARHGEF11, O15085
- T1 sequence (O15085 42-136, limits assumed, looked up): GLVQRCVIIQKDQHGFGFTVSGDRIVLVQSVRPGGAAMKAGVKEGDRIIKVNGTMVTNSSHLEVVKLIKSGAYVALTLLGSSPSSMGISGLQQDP
- Method summary: holdup assay
- Design: key: below the threshold = too weak to quantify, mostly under pKd 3.1 to 4
- Conditions: plain residues with an end cap or a label only (N-terminal biotin on a linker: ado-ado)
Recorded metric: pKd
One number for each entry.

ARSAAASNYV [CLDN4, O14493]    3.8

Qu. Please give measured pKd of the following entry: NTLNRKTTPV [CACNG8, Q8WXS5]
Ans. 4.08
